Reported abundance fitness values follow for various variants
B1: 1-phosphatidylinositol 4,5-bisphosphate phosphodiesterase gamma-2, residues 772 to 827; numbered along this chain, P16885 (parent)
chain: RTVKALYDYKAKRSDELSFCRGALIHNVSKEPGGWWKGDYGTRIQQYFPSNYVEDI

variants of: B1; experiment: abundance fitness (aPCA) (normalised: wild type 0, dead -1); higher = more abundant; growth selection in yeast, the domain comes from the species named; details: Homo sapiens
measurement-name: abundance fitness

> print(dat)
                         biopolymer.sequence  obs.value
 1  RTVKALYDYKAKRSDALSFCRGALIHNVSKEPGGWWKGDYGTRIQQYFPSNYVEDI [E16A]     -0.456
 2  RTVKALYDYKAKRSDELSFCRGALIHNVSKEPGGWWKGDYCTRIQQYFPSNYVEDI [G41C]     -0.581
 3  RTVKALYDYKAKRSDELSFKRGALIHNVSKEPGGWWKGDYGTRIQQYFPSNYVEDI [C20K]      0.002
 4  RTVKALYDYKAKRSDELSFCRGALIHNDSKEPGGWWKGDYGTRIQQYFPSNYVEDI [V28D]     -0.821
 5  RTVKALYDYKALRSDELSFCRGALIHNVSKEPGGWWKGDYGTRIQQYFPSNYVEDI [K12L]     -0.177
 6  RTVKALYDYKAKRSDELSFCRGALIHNVSKEPGGWWKGDYGTRILQYFPSNYVEDI [Q45L]     -0.923
 7  RTVKALYDYKAKRSDELSFCRGALIHNVSKEPGGSWKGDYGTRIQQYFPSNYVEDI [W35S]     -0.273
 8  RTVKALYDYKAKRSDELSFCRGALIHVVSKEPGGWWKGDYGTRIQQYFPSNYVEDI [N27V]     -0.958
 9  RTVKALYDYKAKRSDELSFCRGALIHNVSKEPGGWWKGDYGTRKQQYFPSNYVEDI [I44K]     -0.008
10  RTVKELYDYKAKRSDELSFCRGALIHNVSKEPGGWWKGDYGTRIQQYFPSNYVEDI [A5E]     -0.908
11  RTVKALYDYKAKRSDELSFCRGALIHNVSKEPGGWWKGDYGTKIQQYFPSNYVEDI [R43K]     -0.018
12  RTVKKLYDYKAKRSDELSFCRGALIHNVSKEPGGWWKGDYGTRIQQYFPSNYVEDI [A5K]     -0.998
13  RTVKALYDYKAKRSDELSFCRGALIHNVSKEPGGWWKGDYGTRIQQYFPSNYTEDI [V53T]     -0.177
14  RTVKALYDYKAKRSDELSFCRGALVHNVSKEPGGWWKGDYGTRIQQYFPSNYVEDI [I25V]     -0.481
15  RTVKALYDYKAKRSDELSFCRGALIHNVSKEPGGWWKGDYGTRIQQYFPSLYVEDI [N51L]     -0.261
16  RTVKALYDYIAKRSDELSFCRGALIHNVSKEPGGWWKGDYGTRIQQYFPSNYVEDI [K10I]     -0.336
17  RTVKALYDYKAKRSDELSFCRGALIHNVSKEPGGWWKGDYGTRIQQYFPSNEVEDI [Y52E]     -0.943
18  RTVKALYDYKAKRSDELSFCRGALIHNVSKEPGGWWKGDYGTRIQRYFPSNYVEDI [Q46R]     -0.175
19  RTVKALYDYKAKRSDELSFCRGALIHNVSKELGGWWKGDYGTRIQQYFPSNYVEDI [P32L]     -0.014
20  RTVKALYDYKAKRSDELSFCRGALIHNVSKEPGEWWKGDYGTRIQQYFPSNYVEDI [G34E]      -0.06
21  RTVKALYDYKAKRSDELSFCRGALIHNVSKVPGGWWKGDYGTRIQQYFPSNYVEDI [E31V]     -0.099
22  RTVKALYDYKAKRSDELSFLRGALIHNVSKEPGGWWKGDYGTRIQQYFPSNYVEDI [C20L]     -0.116
